molecular target: Nitric oxide synthase 3 (Homo sapiens) (UniProt P29474); assay: Inhibition of human eNOS at 10 uM using L-arginine as substrate preincubated for 15 mins followed by NADPH addition and measured after 20 mins by OPA/NAC reagent based HPLC-fluorimetric analysis relative to control
Sequence (P29474 whole entry): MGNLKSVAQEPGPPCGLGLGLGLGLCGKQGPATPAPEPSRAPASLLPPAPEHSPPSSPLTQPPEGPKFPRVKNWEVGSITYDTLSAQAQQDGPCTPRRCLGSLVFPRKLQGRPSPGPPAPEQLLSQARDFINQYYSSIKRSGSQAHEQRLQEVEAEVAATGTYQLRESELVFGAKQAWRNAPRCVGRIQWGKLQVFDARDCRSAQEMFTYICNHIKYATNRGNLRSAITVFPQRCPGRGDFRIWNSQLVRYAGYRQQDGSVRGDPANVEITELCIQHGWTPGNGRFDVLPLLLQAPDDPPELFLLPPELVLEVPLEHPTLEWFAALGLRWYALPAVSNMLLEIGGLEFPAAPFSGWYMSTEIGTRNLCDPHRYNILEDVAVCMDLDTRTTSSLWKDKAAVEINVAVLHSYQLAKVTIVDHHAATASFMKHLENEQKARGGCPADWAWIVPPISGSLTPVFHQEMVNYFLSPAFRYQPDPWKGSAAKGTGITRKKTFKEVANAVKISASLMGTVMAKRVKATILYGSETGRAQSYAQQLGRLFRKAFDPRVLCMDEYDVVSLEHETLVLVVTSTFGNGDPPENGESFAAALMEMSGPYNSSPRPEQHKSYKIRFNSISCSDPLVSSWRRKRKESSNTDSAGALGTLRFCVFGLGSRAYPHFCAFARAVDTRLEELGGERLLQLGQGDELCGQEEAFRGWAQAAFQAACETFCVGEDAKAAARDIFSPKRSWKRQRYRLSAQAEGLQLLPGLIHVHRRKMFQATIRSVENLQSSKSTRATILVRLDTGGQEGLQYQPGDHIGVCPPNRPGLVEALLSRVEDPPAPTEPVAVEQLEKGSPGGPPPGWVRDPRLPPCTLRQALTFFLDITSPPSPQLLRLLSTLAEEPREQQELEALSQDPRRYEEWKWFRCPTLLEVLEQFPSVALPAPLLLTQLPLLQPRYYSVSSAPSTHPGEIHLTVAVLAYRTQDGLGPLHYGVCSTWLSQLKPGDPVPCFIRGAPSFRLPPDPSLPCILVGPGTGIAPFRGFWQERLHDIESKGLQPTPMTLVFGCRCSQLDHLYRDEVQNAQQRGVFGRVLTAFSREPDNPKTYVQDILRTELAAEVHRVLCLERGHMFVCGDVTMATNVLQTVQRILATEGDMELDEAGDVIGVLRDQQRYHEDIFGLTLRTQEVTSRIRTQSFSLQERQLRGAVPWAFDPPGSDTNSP
measure: inhibition (%)
The response must be a number in % with no trailing unit.

Task: Form field: reported inhibition of CC(=N)Nc1ccc(S(=O)(=O)Nc2nccs2)cc1
Output: 3

Task: Quick one: inhibition of CC(=N)NCc1ccc(C(=O)Nc2nccs2)cc1 ?
Output: 0

Task: Form field: reported inhibition of CC(=N)NCc1ccc(C(=O)O)cc1
Output: 4

Task: Return reported inhibition; argument: Br.CC(=N)Nc1ccc(C(=O)Nc2ccc(F)cc2)cc1
Output: 0

Task: // lookup inhibition for CC(=N)NCc1ccc(F)cc1
Output: 5

Task: // query inhibition value for entry CC(=N)Nc1ccc(F)cc1
Output: 0

Task: Entry CC(=N)Nc1nc(-c2ccccc2)cs1 has what inhibition?
Output: 14

Task: For the molecule shown here, CC(=N)Nc1ccc(C(=O)O)cc1 , give the reported inhibition.
Output: 62

Task: Record request: inhibition value, item CC(=N)NCc1ccc(C(=O)Nc2ccc(F)cc2)cc1
Output: 0

Task: Bench note: what inhibition did CC(=N)Nc1nc(-c2ccc(Cl)cc2)cs1 show?
Output: 4

Task: Given the molecule CC(=N)Nc1ccc(C(=O)Nc2nccs2)cc1 , what is its reported inhibition?
Output: 0

###

Give measured pIC50 for each item. Keep answers brief.
target: Nitric oxide synthase, inducible (Homo sapiens, UniProt P35228); test: Inhibition of recombinant N-terminal His-tagged human iNOS expressed in Escherichia coli using L-arginine as substrate preincubated for 15 mins followed by NADPH addition and measured after 20 mins by OPA/NAC reagent based HPLC-fluorimetric analysis
Sequence (P35228 whole entry): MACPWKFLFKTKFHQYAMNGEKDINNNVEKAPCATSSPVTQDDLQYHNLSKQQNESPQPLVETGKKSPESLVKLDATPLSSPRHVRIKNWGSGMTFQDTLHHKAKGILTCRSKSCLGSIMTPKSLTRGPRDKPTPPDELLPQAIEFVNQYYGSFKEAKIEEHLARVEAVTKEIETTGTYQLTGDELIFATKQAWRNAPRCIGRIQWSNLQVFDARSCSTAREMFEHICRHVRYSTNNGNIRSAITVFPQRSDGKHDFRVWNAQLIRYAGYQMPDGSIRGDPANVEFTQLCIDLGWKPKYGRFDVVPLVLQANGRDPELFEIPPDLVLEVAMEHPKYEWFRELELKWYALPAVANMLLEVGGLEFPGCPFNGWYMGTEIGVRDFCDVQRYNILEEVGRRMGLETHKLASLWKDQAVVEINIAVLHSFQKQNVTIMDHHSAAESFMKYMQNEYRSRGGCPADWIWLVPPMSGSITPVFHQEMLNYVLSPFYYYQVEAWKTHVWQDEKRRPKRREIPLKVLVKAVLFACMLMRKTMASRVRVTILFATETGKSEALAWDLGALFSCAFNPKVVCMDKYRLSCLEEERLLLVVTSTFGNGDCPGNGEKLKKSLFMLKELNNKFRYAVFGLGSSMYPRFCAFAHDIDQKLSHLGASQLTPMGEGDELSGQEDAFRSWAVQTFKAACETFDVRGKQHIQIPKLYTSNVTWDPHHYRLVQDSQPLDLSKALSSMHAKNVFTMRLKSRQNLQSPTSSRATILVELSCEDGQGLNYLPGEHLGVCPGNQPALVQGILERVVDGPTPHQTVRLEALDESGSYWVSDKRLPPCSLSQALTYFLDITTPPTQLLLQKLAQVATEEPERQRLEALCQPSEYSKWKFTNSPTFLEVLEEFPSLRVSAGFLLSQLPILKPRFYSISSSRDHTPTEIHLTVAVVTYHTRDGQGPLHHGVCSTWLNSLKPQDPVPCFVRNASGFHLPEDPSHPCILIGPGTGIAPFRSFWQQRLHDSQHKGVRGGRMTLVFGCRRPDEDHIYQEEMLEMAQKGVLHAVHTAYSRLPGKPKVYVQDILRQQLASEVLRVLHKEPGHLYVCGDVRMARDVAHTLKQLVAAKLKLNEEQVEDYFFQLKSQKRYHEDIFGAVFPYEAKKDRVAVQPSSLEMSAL
pIC50 field: float, defined as -log10 of concentration (mol/L).

Task: Quick check: pIC50 of CC(=N)NCc1cccc(CNC(=O)CCC(=O)O)c1 ?
Output: 6.37

Task: So what's the measured pIC50 for this one? CC(N)C(=O)Cc1cn[nH]c1 (stereo not drawn)
Output: 6.17

Task: Consider the compound Br.CC(=N)Nc1ccc(C(=O)Nc2ccc(F)cc2)cc1 and give its measured pIC50.
Output: 7.96

###

target: Nitric oxide synthase 1 (Homo sapiens); test: Inhibition of recombinant human nNOS expressed in Escherichia coli at 1 uM using L-arginine as substrate preincubated for 15 mins followed by NADPH addition and measured after 20 mins by OPA/NAC reagent based HPLC-fluorimetric analysis relative to control
Sequence (P29475 whole entry): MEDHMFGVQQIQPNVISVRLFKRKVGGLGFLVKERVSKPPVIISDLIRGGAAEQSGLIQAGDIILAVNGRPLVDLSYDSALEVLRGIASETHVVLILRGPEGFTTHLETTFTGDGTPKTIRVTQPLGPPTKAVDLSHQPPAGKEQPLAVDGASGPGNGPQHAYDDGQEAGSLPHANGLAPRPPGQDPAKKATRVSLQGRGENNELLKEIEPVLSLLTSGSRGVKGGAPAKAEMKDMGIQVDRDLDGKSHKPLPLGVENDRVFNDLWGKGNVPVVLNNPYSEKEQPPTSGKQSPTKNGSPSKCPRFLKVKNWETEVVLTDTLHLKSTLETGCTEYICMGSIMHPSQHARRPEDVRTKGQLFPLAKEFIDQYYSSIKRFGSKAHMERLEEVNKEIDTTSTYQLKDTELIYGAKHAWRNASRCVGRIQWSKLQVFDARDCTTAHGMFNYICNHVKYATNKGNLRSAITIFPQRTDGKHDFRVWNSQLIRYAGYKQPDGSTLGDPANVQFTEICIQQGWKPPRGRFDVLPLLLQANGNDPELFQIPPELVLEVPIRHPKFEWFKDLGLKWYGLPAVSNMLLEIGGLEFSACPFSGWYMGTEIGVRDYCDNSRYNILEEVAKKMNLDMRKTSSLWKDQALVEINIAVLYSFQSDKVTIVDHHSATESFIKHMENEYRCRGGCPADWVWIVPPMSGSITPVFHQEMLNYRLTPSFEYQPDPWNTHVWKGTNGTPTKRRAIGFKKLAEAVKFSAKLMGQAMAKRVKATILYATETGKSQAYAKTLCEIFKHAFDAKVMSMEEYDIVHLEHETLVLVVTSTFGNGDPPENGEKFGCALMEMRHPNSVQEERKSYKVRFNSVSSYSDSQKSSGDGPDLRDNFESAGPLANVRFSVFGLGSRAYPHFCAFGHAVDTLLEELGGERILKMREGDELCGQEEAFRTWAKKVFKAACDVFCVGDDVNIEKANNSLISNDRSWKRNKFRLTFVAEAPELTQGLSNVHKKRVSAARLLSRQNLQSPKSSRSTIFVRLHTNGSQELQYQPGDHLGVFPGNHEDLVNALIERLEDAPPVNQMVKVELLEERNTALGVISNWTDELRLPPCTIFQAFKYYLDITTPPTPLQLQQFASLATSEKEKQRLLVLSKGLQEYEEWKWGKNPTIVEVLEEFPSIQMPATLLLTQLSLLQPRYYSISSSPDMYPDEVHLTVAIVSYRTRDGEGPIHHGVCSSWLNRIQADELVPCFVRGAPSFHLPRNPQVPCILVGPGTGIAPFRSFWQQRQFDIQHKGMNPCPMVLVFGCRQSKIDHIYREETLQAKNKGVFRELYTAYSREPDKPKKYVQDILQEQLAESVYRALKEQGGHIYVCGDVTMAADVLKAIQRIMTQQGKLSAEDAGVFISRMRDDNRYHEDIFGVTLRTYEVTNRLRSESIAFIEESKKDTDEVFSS
measure: inhibition (%)
I only need the number, in %, no unit after it.

Task: So what does the record say about inhibition for CC(=N)Nc1ccc(C(=O)O)cc1 ?
Output: 14

Task: Value lookup for inhibition; key = CC(=N)Nc1ccc(C(=O)Nc2nccs2)cc1
Output: 96

Task: Data request, read-out inhibition, for CC(=N)NCc1ccc(F)cc1
Output: 0

Task: Consider the molecule CC(=N)Nc1ccc(S(=O)(=O)Nc2nccs2)cc1 and give its measured inhibition.
Output: 47

Task: Would you mind telling me what inhibition value was observed for CC(=N)NCc1ccc(C(=O)Nc2nccs2)cc1 ?
Output: 0

Task: Entry CC(=N)NCc1ccc(C(=O)Nc2ccc(F)cc2)cc1 : reported inhibition = ?
Output: 97

Task: For the molecule shown here, CC(=N)Nc1nc(-c2ccccc2)cs1 , give the reported inhibition.
Output: 2

Task: Query: inhibition; subject: CC(=N)NCc1ccc(C(=O)O)cc1
Output: 0

Task: For the molecule shown here, CC(=N)Nc1ccc(F)cc1 , give the reported inhibition.
Output: 10

Task: So what's the measured inhibition for this one? Br.CC(=N)Nc1ccc(C(=O)Nc2ccc(F)cc2)cc1
Output: 0

Task: Item CC(=N)Nc1nc(-c2ccc(Cl)cc2)cs1 has what recorded inhibition?
Output: 13

###

Please respond with reported inhibition for every item in the list.
molecular target: Nitric oxide synthase, inducible (Homo sapiens, UniProt P35228); assay: Inhibition of recombinant N-terminal His-tagged human iNOS expressed in Escherichia coli at 1 uM using L-arginine as substrate preincubated for 15 mins followed by NADPH addition and measured after 20 mins by OPA/NAC reagent based HPLC-fluorimetric analysis relative to control
Field: numeric (%). Do not append units.

Task: Reported inhibition for CC(=N)Nc1nc(-c2ccc(Cl)cc2)cs1 : what is it?
Output: 100

Task: Which inhibition value is on record for CC(=N)Nc1nc(-c2ccccc2)cs1 ?
Output: 100

Task: # lookup: inhibition of CC(=N)NCc1ccc(C(=O)O)cc1
Output: 70

Task: inhibition lookup needed for CC(=N)Nc1ccc(C(=O)Nc2nccs2)cc1 , thanks.
Output: 84

Task: Requested read-out: inhibition. Entry: CC(=N)NCc1ccc(F)cc1
Output: 93

Task: Need inhibition, item CC(=N)Nc1ccc(S(=O)(=O)Nc2nccs2)cc1
Output: 81

Task: Data request, read-out inhibition, for Br.CC(=N)Nc1ccc(C(=O)Nc2ccc(F)cc2)cc1
Output: 100

Task: Which inhibition is listed for CC(=N)Nc1ccc(F)cc1 ?
Output: 85

Task: Need inhibition of CC(=N)NCc1ccc(C(=O)Nc2ccc(F)cc2)cc1 , thanks.
Output: 87

Task: Query (compound): CC(=N)Nc1ccc(C(=O)O)cc1 ; field requested: inhibition
Output: 86

Task: Look up inhibition for this compound: CC(=N)NCc1ccc(C(=O)Nc2nccs2)cc1
Output: 100
